# ASSAY_REMARKS: Pharmacokinetic study in mice, plasma
# Assay type: in vivo
# RUN_CONDITIONS: Swiss Webster, mouse, plasma, po, 60 mg/kg, mice, Not Fasted
READOUT_TYPE: Tmax (min)

molecule=COc1ccc(N(C)c2nc(CN)nc3ccccc23)cc1 numeric_readout=15

----------
# Tested on: P388 murine leukemia cell line
# ASSAY_REMARKS: 72 hour cytotoxicity, ATP-Lite cell viability
# Format: cell-based
# RUN_CONDITIONS: Mus musculus, P388, Lymphoma, read-out: 72 Hour Cytotoxicity (IC50, nM ± SD)
READOUT_TYPE: IC50

compound="COc1ccc(N(C)c2nc(CN)nc3ccccc23)cc1 [Compound 1]" result="6.1 nM"

----------
# Test system: B16F1
# ASSAY_REMARKS: 72 hour cytotoxicity, ATP-Lite cell viability
# Assay type: cell-based
# RUN_CONDITIONS: Mus musculus, B16-F1, B16F1, Melanoma, read-out: 72 Hour Cytotoxicity (IC50, nM ± SD)
READOUT_TYPE: IC50 (nM)

molecule="COc1ccc(N(C)c2nc(CN)nc3ccccc23)cc1 [Compound 1]" numeric_readout=37

----------
# Tested on: HT-29
# ASSAY_REMARKS: 72 hour cytotoxicity, ATP-Lite cell viability
# Assay type: cell-based
# RUN_CONDITIONS: Homo sapiens, HT-29, Colorectal, read-out: 72 Hour Cytotoxicity (IC50, nM ± SD)
READOUT_TYPE: IC50

compound="COc1ccc(N(C)c2nc(CN)nc3ccccc23)cc1 [Compound 1]" readout_type=IC50 result="29 nM"

----------
# ASSAY_REMARKS: Pharmacokinetic study in mice, plasma
# Type: in vivo
# RUN_CONDITIONS: Swiss Webster, mouse, plasma, po, 60 mg/kg, mice, Fasted, PO, 60 mg/kg; read-out: % F
READOUT_TYPE: bioavailability (%)

molecule=COc1ccc(N(C)c2nc(CN)nc3ccccc23)cc1 readout_type=bioavailability numeric_readout=115

----------
# ASSAY_REMARKS: Pharmacokinetic study in a primate, plasma
# Format: in vivo, cynomolgus monkey
# RUN_CONDITIONS: male cynomolgus monkey, fasted, single oral dose 20 mg/kg, plasma
READOUT_TYPE: Tmax (h)

molecule=COc1ccc(N(C)c2nc(CN)nc3ccccc23)cc1 unit_of_measure=h numeric_readout=2

----------
# ASSAY_REMARKS: Pharmacokinetic study in mice, brain
# Format: in vivo
# RUN_CONDITIONS: Swiss Webster, mouse, brain; mice, Not Fasted, PO, 60 mg/kg; read-out: Brain t½ (converted)
READOUT_TYPE: half-life (h)

compound="COc1ccc(N(C)c2nc(CN)nc3ccccc23)cc1 [Compound 1]" readout_type=half-life numeric_readout=9

----------
# ASSAY_REMARKS: Pharmacokinetic study in mice, plasma
# Format: in vivo
# RUN_CONDITIONS: Swiss Webster, mouse, plasma, iv, 2.5 mg/kg, mice, Not Fasted, IV, 2.5 mg/kg; read-out: Plasma t½ (converted)
READOUT_TYPE: half-life (h)

molecule=COc1ccc(N(C)c2nc(CN)nc3ccccc23)cc1 numeric_readout=6.2

----------
# ASSAY_REMARKS: Pharmacokinetic study in mice, plasma
# Format: in vivo
# RUN_CONDITIONS: Swiss Webster, mouse, plasma, po, 60 mg/kg, mice, Not Fasted, PO, 60 mg/kg; read-out: % F
READOUT_TYPE: bioavailability (%)

molecule=COc1ccc(N(C)c2nc(CN)nc3ccccc23)cc1 readout_type=bioavailability numeric_readout=96

Where these numbers come from: patent US20110224240A1
